Kindly state pIC50 for each of the entries shown.
- Test system: HT-29
- assay_protocol: Cytotoxicity against human HT-29 cells after 48 hrs by MTT assay
- Assay type: functional, cell-based
- condition_label: HT-29, 48 h
pIC50: −log10 of the molar value.

{"smiles_string": "CS(=O)(=O)c1ccc(Cc2nnc3n2N=C(c2cc(Cl)sc2Cl)CS3)cc1", "pIC50": "< 4.00"}
{"smiles_string": "CS(=O)(=O)c1ccc(Cc2nnc3n2N=C(c2cc(Cl)sc2S(N)(=O)=O)CS3)cc1", "pIC50": "< 4.00"}
{"smiles_string": "CS(=O)(=O)c1ccc(Cc2nnc3n2N=C(c2cc(Cl)cc4c2-c2ccc(Cl)cc2C4)CS3)cc1", "pIC50": 4.00}
{"smiles_string": "CS(=O)(=O)c1ccc(Cc2nnc3n2N=C(c2cc4ccccc4c(=O)o2)CS3)cc1", "pIC50": "< 4.00"}
{"smiles_string": "CS(=O)(=O)c1ccc(Cc2nnc3n2N=C(c2ccc(Cl)cc2Cl)CS3)cc1", "pIC50": "< 4.00"}
{"smiles_string": "CS(=O)(=O)c1ccc(Cc2nnc3n2N=C(c2ccc(O)c(C(N)=O)c2)CS3)cc1", "pIC50": "< 4.00"}
{"smiles_string": "Cc1ccc(C2=Nn3c(Cc4ccc(S(C)(=O)=O)cc4)nnc3SC2)cc1", "pIC50": "< 4.00"}
{"smiles_string": "CS(=O)(=O)c1ccc(Cc2nnc3n2N=C(c2ccccc2)CS3)cc1", "pIC50": 4.60}

Kindly review the next molecule as well.
q: Look up pIC50: CS(=O)(=O)c1ccc(Cc2nnc3n2N=C(c2ccc(-c4ccccc4)cc2)CS3)cc1
a: 4.90

---

- Test system: Staphylococcus aureus
- assay_protocol: Antibacterial activity against Staphylococcus aureus after 16 hrs by broth dilution method
- Type: functional
observable: MIC (µg/mL)
Give bare numbers, in µg/mL.

Illustrative cases are given below, each with its answer.
{"molecule": "CC1(C)S[C@@H]2[C@H](NC(=O)Cc3ccccc3)C(=O)N2[C@H]1C(=O)O [PENICILLIN G]", "system_name": "Staphylococcus aureus", "readout_units": "µg/mL", "MIC": 0.12}
{"molecule": "CS(=O)(=O)c1ccc(Cc2nnc3n2N=C(c2cc(Cl)sc2S(N)(=O)=O)CS3)cc1", "system_name": "Staphylococcus aureus", "readout_units": "µg/mL", "MIC": 12.5}
{"molecule": "CS(=O)(=O)c1ccc(Cc2nnc3n2N=C(c2ccc(O)c(C(N)=O)c2)CS3)cc1", "system_name": "Staphylococcus aureus", "readout_units": "µg/mL", "MIC": 12.5}
{"molecule": "CS(=O)(=O)c1ccc(Cc2nnc3n2N=C(c2ccc(Cl)cc2Cl)CS3)cc1", "system_name": "Staphylococcus aureus", "readout_units": "µg/mL", "MIC": 12.5}

Look up MIC for the entries below, preserving their order.
1. CS(=O)(=O)c1ccc(Cc2nnc3n2N=C(c2cc4ccccc4c(=O)o2)CS3)cc1
2. Cc1ccc(C2=Nn3c(Cc4ccc(S(C)(=O)=O)cc4)nnc3SC2)cc1
3. CS(=O)(=O)c1ccc(Cc2nnc3n2N=C(c2ccc(-c4ccccc4)cc2)CS3)cc1
4. CS(=O)(=O)c1ccc(Cc2nnc3n2N=C(c2ccccc2)CS3)cc1
5. CS(=O)(=O)c1ccc(Cc2nnc3n2N=C(c2cc(Cl)cc4c2-c2ccc(Cl)cc2C4)CS3)cc1
6. CS(=O)(=O)c1ccc(Cc2nnc3n2N=C(c2cc(Cl)sc2Cl)CS3)cc1

a:
[6.25, 12.5, 6.25, 6.25, 12.5, 6.25]

---

- System: Pseudomonas aeruginosa
- assay_protocol: Antibacterial activity against Pseudomonas aeruginosa after 16 hrs by broth dilution method
- Format: functional
Would you kindly list MIC for each of these molecules?
Give bare numbers, in µg/mL.

{"molecule": "CS(=O)(=O)c1ccc(Cc2nnc3n2N=C(c2cc(Cl)cc4c2-c2ccc(Cl)cc2C4)CS3)cc1", "readout_units": "µg/mL", "MIC": 3.12}
{"molecule": "CS(=O)(=O)c1ccc(Cc2nnc3n2N=C(c2ccc(-c4ccccc4)cc2)CS3)cc1", "readout_units": "µg/mL", "MIC": 6.25}
{"molecule": "CS(=O)(=O)c1ccc(Cc2nnc3n2N=C(c2cc(Cl)sc2Cl)CS3)cc1", "readout_units": "µg/mL", "MIC": 6.25}
{"molecule": "CS(=O)(=O)c1ccc(Cc2nnc3n2N=C(c2cc(Cl)sc2S(N)(=O)=O)CS3)cc1", "readout_units": "µg/mL", "MIC": 6.25}
{"molecule": "CS(=O)(=O)c1ccc(Cc2nnc3n2N=C(c2ccc(Cl)cc2Cl)CS3)cc1", "readout_units": "µg/mL", "MIC": 6.25}

// for each molecule below, give its MIC
1. CC1(C)S[C@@H]2[C@H](NC(=O)Cc3ccccc3)C(=O)N2[C@H]1C(=O)O [PENICILLIN G]
2. CS(=O)(=O)c1ccc(Cc2nnc3n2N=C(c2ccccc2)CS3)cc1
3. CS(=O)(=O)c1ccc(Cc2nnc3n2N=C(c2ccc(O)c(C(N)=O)c2)CS3)cc1
4. CS(=O)(=O)c1ccc(Cc2nnc3n2N=C(c2cc4ccccc4c(=O)o2)CS3)cc1
5. Cc1ccc(C2=Nn3c(Cc4ccc(S(C)(=O)=O)cc4)nnc3SC2)cc1

a:
0.12
6.25
6.25
6.25
12.5

---

Assign Activity to each entry below.
- Tested on: RAW264.7
- assay_protocol: Cytotoxicity against mouse RAW264.7 cells assessed as cell death at 100 uM after 48 hrs by MTT assay
- Format: functional
- condition_label: pooled result: one value given for 2 cell lines, strains, targets or settings
Numbers only, in %.

Example entries begin here.
{"smiles_string": "CS(=O)(=O)c1ccc(Cc2nnc3n2N=C(c2ccccc2)CS3)cc1", "observable": "Activity", "assay_value": 55.51}
{"smiles_string": "CS(=O)(=O)c1ccc(Cc2nnc3n2N=C(c2cc(Cl)sc2Cl)CS3)cc1", "observable": "Activity", "assay_value": 47.27}
{"smiles_string": "CS(=O)(=O)c1ccc(Cc2nnc3n2N=C(c2ccc(Cl)cc2Cl)CS3)cc1", "observable": "Activity", "assay_value": 30.99}

Now, please, on to the next molecule.
q: What Activity value was documented for this molecule, Cc1ccc(C2=Nn3c(Cc4ccc(S(C)(=O)=O)cc4)nnc3SC2)cc1 ?
a: 38.53

---

- Test system: RAW264.7
- assay_protocol: Cytotoxicity against mouse RAW264.7 cells assessed as cell death at 100 uM after 48 hrs by MTT assay
- Format: functional
- condition_label: pooled result: one value given for 2 cell lines, strains, targets or settings
Exercise: for every item that follows, state its recorded Activity.
The answer consists of two parts: a number and, after it, its unit.

{"smiles_string": "CS(=O)(=O)c1ccc(Cc2nnc3n2N=C(c2cc(Cl)sc2S(N)(=O)=O)CS3)cc1", "Activity": "35.22%"}

Return reported Activity values for all items listed beneath this line.
1. CS(=O)(=O)c1ccc(Cc2nnc3n2N=C(c2cc4ccccc4c(=O)o2)CS3)cc1
2. CS(=O)(=O)c1ccc(Cc2nnc3n2N=C(c2ccc(O)c(C(N)=O)c2)CS3)cc1
3. CS(=O)(=O)c1ccc(Cc2nnc3n2N=C(c2ccc(-c4ccccc4)cc2)CS3)cc1
4. CS(=O)(=O)c1ccc(Cc2nnc3n2N=C(c2cc(Cl)cc4c2-c2ccc(Cl)cc2C4)CS3)cc1

a:
10.63%
37.08%
74.77%
50.33%
